Entries annotated with measured pKd
molecular target: T1, APP-Avi-soluble cynomolgus monkey LOX-1 (61-273) (cynomolgus monkey, biotinylated at the Avi tag when immobilised in the SET assay); test: SPR Biacore T200, antibody captured by anti-human IgG, cynomolgus soluble LOX-1 as analyte, 1:1 model
T1 construct: Expressed and purified in the same way as the human protein; also called cynomolgus monkey soluble LOX-1; Cynomolgus Monkey Soluble APP-Avi-LOX-1
T1 sequence (chain, as listed by the source): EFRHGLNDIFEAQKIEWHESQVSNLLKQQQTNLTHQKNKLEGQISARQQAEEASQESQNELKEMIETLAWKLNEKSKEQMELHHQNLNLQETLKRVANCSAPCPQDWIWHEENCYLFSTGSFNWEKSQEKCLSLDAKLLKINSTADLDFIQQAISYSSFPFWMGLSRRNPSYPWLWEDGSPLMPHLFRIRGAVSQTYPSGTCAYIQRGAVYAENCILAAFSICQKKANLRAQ
Scale: negative log10 of molar concentration, which is what pKd denotes.

FF6 (antibody, human IgG1, kappa, L234A L235A, V domains shown, Humaneered variant of E2E10, tested as full human IgG; Biotinylated for the neutrophil assay; also called LLG788; LLG788 (FF6)) VH: QVQLVQSGAEVKKPGASVKVSCKASGYTFTDYEVHWVRQAPGQGLEWMGAIHPGSGGAAYVQKFQGRVTMTRDTSISTAYMELSRLRSDDTAVYYCARWLPIDYWGQGTLVTVSS VL: DIQMTQSPSSVSASVGDRVTITCRASQGINNWLVWYQQKPGKAPKLLLYAASRLESGVPSRFSGSGSGTDYTLTISSLQPEDIATYYCQQYLITPYTFGQGTKLEIKR | 10.28

Next:
// query Would you mind telling me what pKd value was observed for FF1 (antibody, human IgG1, kappa, L234A L235A, V domains shown, Humaneered variant of E2E10, tested as full human IgG (captured or detected with anti-human IgG); Biotinylated for the neutrophil assay; also called LLG783; LLG783 (FF1)) VH: QVQLVQSGAEVKKPGASVKVSCKASGYTFTDYEVHWVRQAPGQGLEWMGAIHPGSGGAAYVQKFQGRVTMTRDTSTSTAYMELSSLRSDDTAVYYCARWLPMDYWGQGTLVTVSS VL: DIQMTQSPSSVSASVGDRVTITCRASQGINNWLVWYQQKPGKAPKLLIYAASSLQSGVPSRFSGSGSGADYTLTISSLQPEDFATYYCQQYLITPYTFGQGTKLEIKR ?
// result 10.92
